FYI, the data here is from BindingDB's records for doi:10.1016/j.bmcl.2017.04.009.

test.target: Muscarinic acetylcholine receptor M4 (Homo sapiens)
Sequence (P08173 whole entry): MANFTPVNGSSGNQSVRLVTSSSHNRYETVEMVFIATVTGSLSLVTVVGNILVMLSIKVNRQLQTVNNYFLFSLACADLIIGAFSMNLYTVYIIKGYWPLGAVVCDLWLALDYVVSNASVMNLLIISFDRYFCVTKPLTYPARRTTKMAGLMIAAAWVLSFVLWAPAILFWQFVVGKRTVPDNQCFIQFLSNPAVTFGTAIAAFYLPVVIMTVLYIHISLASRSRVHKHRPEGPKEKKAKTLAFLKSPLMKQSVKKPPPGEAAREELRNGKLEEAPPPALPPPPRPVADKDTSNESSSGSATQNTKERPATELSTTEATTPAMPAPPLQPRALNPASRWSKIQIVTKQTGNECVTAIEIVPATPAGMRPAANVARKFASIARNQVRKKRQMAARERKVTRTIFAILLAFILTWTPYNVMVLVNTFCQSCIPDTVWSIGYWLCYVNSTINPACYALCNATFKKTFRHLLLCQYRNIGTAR
experimental.details: Antagonist activity at recombinant human M4 receptor expressed in CHO cells co-expressing Gqi5 by calcium mobilization assay
quantity.kind: IC50 (nM)
Provide only the numeric value, understood in nM.

[ask] Endpoint output: IC50 of O=C(C1CCN(c2cc(Oc3ccc(Cl)cc3F)ncn2)CC1)N1CCc2ccccc2C1 . Value?
[reply] 117
